assay: HepG2 mammalian toxicity, CellTiter-Glo, 48 h; conditions: human, HepG2 cells, HepG2 AC50 (mammalian cellular toxicity), 48 h compound exposure
quantity-kind: AC50 at 48 h

{"molecule": "CCCN1C(c2ccccc2)=NS(=O)(=O)c2cc(NC(=O)c3cccs3)ccc21 [NCGC00532332]", "measurement": "> 20 µM"}
{"molecule": "CCCN1C(c2ccccc2)=NS(=O)(=O)c2cc(NC(=O)c3ccc(F)cc3)ccc21 [NCGC00532331]", "measurement": "> 20 µM"}

====

system: HepG2-A16-CD81EGFP cells; settings: HepG2, 1 µM compound treatment (10 mM stocks), replicate 1, normalized, average of 2 wells

{"molecule": "CCOc1cccc(CNCCc2c(C)[nH]c3ccc(OC(F)(F)F)cc23)c1O.O=C(O)C(=O)O", "HepG2 1uM growth rep1, %": 97}
{"molecule": "Cc1cc(N2CCN(C3CCCC3)CC2)n2c(nc3ccccc32)c1C#N", "HepG2 1uM growth rep1, %": 91}
{"molecule": "Cc1cc(Nc2ccc(Br)c(C)c2)n2nc(C)nc2n1", "HepG2 1uM growth rep1, %": 91}
{"molecule": "CCCC(C)C(=O)Nc1ncc(S(=O)(=O)c2ccc([N+](=O)[O-])cc2)s1 (stereo not shown)", "HepG2 1uM growth rep1, %": 95}
{"molecule": "CCOc1ccccc1NC(=O)Cn1c(-c2ccc(Cl)cc2)noc1=O", "HepG2 1uM growth rep1, %": 101}
{"molecule": "COc1cc(NC(=O)c2cc([N+](=O)[O-])ccc2NC(=O)CNC2CCCCC2C)cc(OC)c1 (stereo not shown)", "HepG2 1uM growth rep1, %": 96}
{"molecule": "COc1ccc(-n2nc(C(=O)NCC(=O)N3CCN(c4ccccc4OC)CC3)c3ccccc3c2=O)c(OC)c1", "HepG2 1uM growth rep1, %": 89}
{"molecule": "Cc1nc2ccc(NC(=O)c3cc(S(=O)(=O)N(C)c4ccccc4)ccc3Cl)cc2s1", "HepG2 1uM growth rep1, %": 61}
{"molecule": "CCn1cnc2c(Nc3cc(F)cc(F)c3)nc(C#N)nc21", "HepG2 1uM growth rep1, %": 88}
{"molecule": "NS(=O)(=O)c1ccc(N/N=C/c2cn(-c3ccccc3)nc2-c2cccs2)cc1", "HepG2 1uM growth rep1, %": 92}
{"molecule": "CCCCN(C(=O)c1cccc(S(=O)(=O)N(C)c2ccc(C)cc2)c1)c1c(N)n(CCCC)c(=O)[nH]c1=O", "HepG2 1uM growth rep1, %": 96}
{"molecule": "CC(C)CCN(CCC(C)C)CC(O)Cn1c2ccccc2c(=O)c2ccccc21 (stereo not shown)", "HepG2 1uM growth rep1, %": 105}
{"molecule": "CC(NCc1ccccc1O)C12CC3CC(CC(C3)C1)C2 (stereo not shown)", "HepG2 1uM growth rep1, %": 109}
{"molecule": "CCOC(=O)c1sc2nc3c(SCCC#N)cc(C(=O)c4cc(F)ccc4O)cn3c(=O)c2c1C", "HepG2 1uM growth rep1, %": 91}
{"molecule": "Nc1nonc1-n1nnc(C(=O)N/N=C/c2ccc(Br)cc2)c1-c1ccc2c(c1)OCO2", "HepG2 1uM growth rep1, %": 91}
{"molecule": "Cc1ccc(NC2=C/C(=N/S(=O)(=O)c3cccs3)c3ccccc3C2=O)cc1C", "HepG2 1uM growth rep1, %": 102}
